# assay-system: T1, SARS-CoV-2 RBD-mFc (SARS-CoV-2, UniProt P0DTC2 319-541)
# T1 construct: range 319-541
# experiment-summary: Octet QKe BLI, 1:1 global fit
measurement-name: kon (M⁻¹ s⁻¹)
Only the number, expressed in M⁻¹ s⁻¹, is required.

Previously resolved entries follow.
// query kon value for entry SA3830 (antibody, V domains shown) VH: QVQLVESGGGLIQPGRSLSLSCAASGFNFDEYSMHWVRQRPGKGLEWVSGIKYNSNTILYADSVKGRFTVSRDNSKNSLYLQMNSLRAEDTAVYYCARDAMRGGDFDHWGQGTLITVSS VL: DIQMTQSPSYLSASAGDRVTITCRASQSISDWLAWYQHKPGKAPKLLIYKASRLENGVPSRFRGSGSATDFTLTISSLQAEDVAVYYCQQYYSTTWTFGQGTKVDIK 897000

Fill in the blank: the reported kon of SA4056 (antibody, V domains shown) VH: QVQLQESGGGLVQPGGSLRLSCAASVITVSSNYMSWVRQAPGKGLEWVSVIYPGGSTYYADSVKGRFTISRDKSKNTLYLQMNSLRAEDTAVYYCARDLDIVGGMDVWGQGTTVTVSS VL: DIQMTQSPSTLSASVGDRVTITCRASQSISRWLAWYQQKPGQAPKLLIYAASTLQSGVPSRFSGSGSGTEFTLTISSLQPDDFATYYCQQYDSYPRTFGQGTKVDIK is ____. 477000

Continuing:
Which kon reading was recorded for the binder SA4040 (antibody, V domains shown) VH: EVQLVQSGAEVKKPGASVKVSCKASGYTFTGYYMHWARQAPGQGLEWMGWINPNSGGTNYAQKFQGRVTMTRDTSITTAYMELSRLTSDDTAVYYCARDQAFSMVRGVTDYWGQGTLVTVSS VL: QSALTQPPSASGSPGQSVIISCTGSSSDVGGYNYVAWYQQYPGAAPKLIISEVTKRPSGVPDRFSGSKSGNTASLTISGLQAEDEANYYCSSYAGDNTWIFGGGTKLTVL ? 471000
